test system: Rattus norvegicus; assay: Gastrointestinal toxicity in Wistar rat assessed as ulcerogenic induces at 200 mg/kg, po after 17 hrs; format: organism-based; parameters: dose 200 mg/kg, route oral; conditions: in vivo
propertyLabel: UI

In [3]: df
Out[3]:
                                   compound  recordedvalue
0  CC(C)Cc1ccc(C(C)C(=O)O)cc1 (configuration not stated)            1.8
1  CC1(C)CC(=O)C2=C(C1)N=C1NN=C([C@@H](O)[C@@H](O)[C@H](O)[C@H](O)CO)N1C2c1ccc(Cl)cc1 (some centres not stated)            0.6
2  CC1(C)CC(=O)C2=C(C1)N=C1NN=C([C@H](O)[C@@H](O)[C@H](O)CO)N1C2c1ccc(Cl)cc1 (some centres not stated)            0.6
3  CC1(C)CC(=O)C2=C(C1)N=C1NN=C([C@@H](O)[C@H](O)[C@H](O)CO)N1C2c1ccc(Cl)cc1 (some centres not stated)            0.5
4  CC1(C)CC(=O)C2=C(C1)N=C1NN=C([C@H](O)[C@@H](O)[C@H](O)[C@H](O)CO)N1C2c1ccc(Cl)cc1 (some centres not stated)            0.5
5  CC1(C)CC(=O)C2=C(C1)N=C1NN=C([C@H](O)[C@@H](O)[C@@H](O)[C@H](O)CO)N1C2c1ccc(Cl)cc1 (some centres not stated)            0.8
6  CC1(C)CC(=O)C2=C(C1)N=C1NN=C([C@@H](O)[C@@H](O)[C@H](O)CO)N1C2c1ccc(Cl)cc1 (some centres not stated)            0.5

* * *

test system: Mus musculus; assay: Analgesic activity in Swiss albino mouse assessed as inhibition of acetic acid-induced writhing response at 70 mg/kg, po pretreated 1 hr before acetic acid challenge; format: functional
This section presents compounds with their documented inhibition in vivo at 70 mg/kg values.
propertyLabel: inhibition in vivo at 70 mg/kg

>>> df
                                   compound                   propertylabel  recordedvalue
0  CC1(C)CC(=O)C2=C(C1)N=C1NN=C([C@@H](O)[C@H](O)[C@H](O)CO)N1C2c1ccc(Cl)cc1 (some centres not stated)  inhibition in vivo at 70 mg/kg          59.5%
1  CC1(C)CC(=O)C2=C(C1)N=C1NN=C([C@H](O)[C@@H](O)[C@H](O)[C@H](O)CO)N1C2c1ccc(Cl)cc1 (some centres not stated)  inhibition in vivo at 70 mg/kg            73%
2  CC1(C)CC(=O)C2=C(C1)N=C1NN=C([C@@H](O)[C@@H](O)[C@H](O)[C@H](O)CO)N1C2c1ccc(Cl)cc1 (some centres not stated)  inhibition in vivo at 70 mg/kg            57%
3  CC1(C)CC(=O)C2=C(C1)N=C1NN=C([C@H](O)[C@@H](O)[C@@H](O)[C@H](O)CO)N1C2c1ccc(Cl)cc1 (some centres not stated)  inhibition in vivo at 70 mg/kg            59%
4  CC1(C)CC(=O)C2=C(C1)N=C1NN=C([C@@H](O)[C@@H](O)[C@H](O)CO)N1C2c1ccc(Cl)cc1 (some centres not stated)  inhibition in vivo at 70 mg/kg          56.6%
5  CC1(C)CC(=O)C2=C(C1)N=C1NN=C([C@H](O)[C@@H](O)[C@H](O)CO)N1C2c1ccc(Cl)cc1 (some centres not stated)  inhibition in vivo at 70 mg/kg            71%
6  CC(C)Cc1ccc(C(C)C(=O)O)cc1 (configuration not stated)  inhibition in vivo at 70 mg/kg          83.5%

Data credit: ChEMBL document CHEMBL1154104
